Listed next: entries and their corresponding koff.
# system.tested: T1, hPD-1 His-tagged (human, UniProt Q15116 25-167)
# T1 construct: also called recombinant hPD-1 (AcroBio)
# procedure.summary: BLI (legend: SPR), Ab on sensor
Just the number in s⁻¹, nothing appended.

- 20H02 (antibody, V domains shown, used with CH1,2,3 and corresponding CL) VH: EVLLVESGGGLVQPGGSLRLSCAASGFTFSSYSMNWVRQAPGKGLEWVSFISSSSPTLYYADSVKGRFTISRDNAKNSLYLQMNSLRDEDTAVYYCARQGLTPFDYWGQGTLVTVSS VL: EIVMTQSPATLSVFPGERATLSCRASQSVSSYLAWYQQKPGQAPRLLIYGASTRATGIPARVSGSGSGTEFILTISSLQSEDFAVYYCQQYNNWPYTFGQGTKLEIK: 0.000221
- 39F23 (antibody, V domains shown, used with CH1,2,3 and corresponding CL) VH: QVQLVESGGGVGQPGRSLRLSCAASGFTFSNYGMHWVRQAPGKGLEWVAVIWYDGSKKYYADSVKGRFTISRDNSKNTLYLQMNSLRVEDTAVYYCVGNSGHWGQGTLVTVSS VL: DIVMTQTPLSLPVTPGEPASISCRSSQSLLDSDDGNTYLDWYLQKPGQSPQLLIYTLSYRASGVPDRFSGSGSGTDFTLKISRVEAEDVGVYYCMQCIEFPHTFGGGTKVEIK: 0.000253
- 56H02 (antibody, V domains shown, used with CH1,2,3 and corresponding CL) VH: QVQLVQSGAEVKKPGASVKVSCKASGYTFTSYFMHWVRQAPGQGLEWMGLINPDGGNTDYAQKFQGRVTMTRDTSTSTVYMELSSLRSEDTAVYYCARDGNYYDSSGYYYPDAFDIWGQGTMVTVSS VL: SSELTQDPAVSVALGQTVRITCQGDSLRRFYASWYQQKPGQAPVIVIYGKDNRPSGTPDRFSGSTSGNTASLTITGAQAEDEADYYCNSRDSSGTHVVFGGGTKLTVL: 3.79e-05

Consider now this further binder.
So for 40B20 (antibody, V domains shown, used with CH1,2,3 and corresponding CL) VH: EVQLVESGGGLVQPGGSLRLSCAASGFTFSSYSMNWVRQAPGKGLQWVSYITSSSNTMYYADSVKGRFTISRDNAKNSLYLQMNSLRDEDTAVYYCASIVGAPFDYWGQGTLVTVSS VL: EIVMTQSPATLSVSPGERATLSCRASQSVSSSLAWYQQKPGQAPRLLIYGASTRATGIPARFSGSGSGTEFTLTISSLQSEDFAAYYCQQYNNWPFTFGPGTKVDIK , the logged koff turned out to be 0.000773

Entry source: patent US20260207767A1
